# Test system: HEL
# test_name: Concentration required to cause 50% reduction in HEL cell growth.
# Assay type: functional
# assay_setup: Homo sapiens; read-out: MIC
recorded_metric: CC50 (50% cell growth inhibitory concentration) (µg/mL)
Response body: numeric value in µg/mL, unit text excluded.

Request: Entry O=c1[nH]c(=O)n([C@@H]2C[C@@H](O)[C@@H](CO)O2)cc1-c1ccco1 needs its CC50 (50% cell growth inhibitory concentration) filled in; supply it.
Result: 110

Request: Provide measured CC50 (50% cell growth inhibitory concentration) value, entry: O=c1[nH]c(=O)n([C@H]2C[C@H](O)[C@@H](CO)O2)cc1-c1ccc(Br)s1
Result: 155

###

# Tested on: E6SM
# test_name: Concentration required to inhibit VSV induced cytopathogenicity in E6SM cells by 50%.
# Type: functional
# assay_setup: Homo sapiens
# maps each entry to its MIC

// worked examples, MIC included
{"compound": "O=c1[nH]c(=O)n([C@H]2C[C@H](O)[C@@H](CO)O2)cc1-c1ccc(Cl)o1", "assay_target": "E6SM", "MIC": "> 200 µg/mL"}
{"compound": "O=c1[nH]c(=O)n([C@H]2C[C@H](O)[C@@H](CO)O2)cc1/C=C/Br", "assay_target": "E6SM", "MIC": "400 µg/mL"}
{"compound": "O=c1[nH]c(=O)n([C@H]2C[C@H](O)[C@@H](CO)O2)cc1-c1ccco1", "assay_target": "E6SM", "MIC": "300 µg/mL"}

Request: Supply reported MIC belonging to this compound: CC1[C@@H](O)[C@@H](CO)O[C@@H]1n1cc(I)c(=O)[nH]c1=O (stereo not given in full)
Result: 300 µg/mL

Request: Quickly give me recorded MIC for O=c1[nH]c(=O)n([C@H]2C[C@H](O)[C@@H](CO)O2)cc1-c1ccc(Br)o1
Result: > 200 µg/mL

###

# System: HEL
# test_name: Concentration required to inhibit VZV (oka) induced cytopathogenicity in HEL cells by 50%.
# Type: functional
# assay_setup: Homo sapiens
recorded_metric: MIC
Include the unit right after the number.

Reference set (2 entries):
{"entry_smiles": "Nc1nc(=O)n([C@H]2C[C@H](O)[C@@H](CO)O2)cc1-c1cccs1", "assay_target": "HEL", "MIC": "3 µg/mL"}
{"entry_smiles": "O=c1[nH]c(=O)n([C@H]2C[C@H](O)[C@@H](CO)O2)cc1-c1ccc(Cl)o1", "assay_target": "HEL", "MIC": "2.5 µg/mL"}

Request: Look up and report measured MIC (HEL) for the following compound: O=c1[nH]c(=O)n([C@@H]2C[C@H](O)[C@@H](CO)O2)cc1-c1cccs1
Result: 75 µg/mL

Request: State the measured MIC (HEL) of O=c1[nH]c(=O)n([C@H]2C[C@H](O)[C@@H](CO)O2)cc1-c1ccc(Br)o1
Result: 3 µg/mL

Request: Give MIC for this entry on HEL: O=c1[nH]c(=O)n([C@H]2C[C@H](O)[C@@H](CO)O2)cc1/C=C/Br
Result: 0.001 µg/mL

###

# System: HEL
# test_name: Concentration required to cause 50% reduction in HEL cell growth.
# Assay type: functional
# assay_setup: Homo sapiens; read-out: MIC
recorded_metric: CC50 (50% cell growth inhibitory concentration) (µg/mL)
// return numeric value only (unit: µg/mL, not printed)

For orientation, consider the following solved cases.
{"entry_smiles": "O=c1[nH]c(=O)n([C@H]2C[C@H](O)[C@@H](CO)O2)cc1-c1ccc(Cl)o1", "number": 105}
{"entry_smiles": "O=c1[nH]c(=O)n([C@@H]2C[C@H](O)[C@@H](CO)O2)cc1-c1cccs1", "number": 180}
{"entry_smiles": "O=c1[nH]c(=O)n([C@H]2C[C@H](O)[C@@H](CO)O2)cc1-c1ccco1", "number": 100}

Request: Provide measured CC50 (50% cell growth inhibitory concentration) value, entry: Nc1nc(=O)n([C@H]2C[C@H](O)[C@@H](CO)O2)cc1-c1cccs1
Result: 45

Request: Dear colleague, please send me the reported CC50 (50% cell growth inhibitory concentration) for O=c1[nH]c(=O)n([C@H]2C[C@H](O)[C@@H](CO)O2)cc1-c1ccc(Br)o1 when you can.
Result: 125
